tested on: Actinomyces viscosus; assay: Antibacterial activity against Actinomyces viscosus ATCC 15987 after 48 hrs by broth microdilution method; format: functional; settings: ATCC 15987, 48 h
Entries and their MBC values follow.
assay_readout: MBC

> print(dat)
                              smiles.string  assay.readout   result
1              Oc1cc(Cl)ccc1Oc1ccc(Cl)cc1Cl            MBC  8 µg/mL
2  CC(C)=CCC[C@@](C)(/C=C/c1ccc(N)cc1)/C=C/c1ccc(O)cc1            MBC  2 µg/mL
3    C=C[C@@](C)(/C=C/c1ccc(O)cc1)CCC=C(C)C            MBC  2 µg/mL
